molecular target: IRAK4 (Homo sapiens (Human)); assay: IRAK4 Inhibition Assay; assay type: biochemical; conditions: IRAK4 Inhibition Assay; ATP 500 μM; read-out: IRAK4 IC50
Sequence (Q9NWZ3 whole entry, species assumed): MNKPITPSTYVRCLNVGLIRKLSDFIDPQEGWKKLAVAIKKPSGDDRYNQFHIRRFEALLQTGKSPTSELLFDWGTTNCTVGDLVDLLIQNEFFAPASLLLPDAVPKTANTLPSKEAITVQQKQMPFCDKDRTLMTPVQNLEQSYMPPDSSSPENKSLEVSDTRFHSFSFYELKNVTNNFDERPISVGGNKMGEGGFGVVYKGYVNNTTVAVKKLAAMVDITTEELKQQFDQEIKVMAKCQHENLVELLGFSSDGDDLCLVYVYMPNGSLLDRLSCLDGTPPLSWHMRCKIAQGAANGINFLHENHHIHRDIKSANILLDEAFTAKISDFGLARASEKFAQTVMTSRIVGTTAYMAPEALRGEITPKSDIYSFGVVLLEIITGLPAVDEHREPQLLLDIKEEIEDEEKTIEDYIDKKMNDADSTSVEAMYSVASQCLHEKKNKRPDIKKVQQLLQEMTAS
Recorded IC50 by entry

Observe how each entry below is paired with its result.
[
  {
    "compound": "CC(C)Nc1cc(-n2ncc3cc(C#N)cnc32)ncc1C(=O)NCc1nc(Cc2ccccc2)no1",
    "measuredOn": "IRAK4 (Homo sapiens (Human))",
    "IC50": "4.5 nM"
  },
  {
    "compound": "CC(C)(O)CCNC(=O)c1cnc(-n2ccc3cc(C#N)cnc32)cc1NC1CCOCC1",
    "measuredOn": "IRAK4 (Homo sapiens (Human))",
    "IC50": "1.7 nM"
  },
  {
    "compound": "CC(C)Nc1cc(-n2ncc3cc(C#N)cnc32)ncc1C(=O)Nc1cnn(C2CN(S(C)(=O)=O)C2)c1",
    "measuredOn": "IRAK4 (Homo sapiens (Human))",
    "IC50": "7.8 nM"
  },
  {
    "compound": "COC1CCN(c2ccc(NC(=O)c3cnc(-n4ncc5cc(C#N)cnc54)cc3NC(C)C)cn2)CC1",
    "measuredOn": "IRAK4 (Homo sapiens (Human))",
    "IC50": "6.8 nM"
  }
]

Now consider the entry below.
**Query** Note IC50 for the compound shown: CC(C)(O)[C@H](F)CNC(=O)c1cnc(-n2ncc3cc(C#N)cnc32)cc1NC1CC1 [Example 139]
**Result** 2.9 nM

* * *

tested on: TLR2 induced IL-6 in peripheral blood mononuclear cells (PBMCs); experiment: PBMC TLR2 Induced IL-6 Assay; assay type: cell-based, human; conditions: Homo sapiens, PBMC, human PBMCs, lipoteichoic acid stimulated, IL-6 by ELISA; read-out: Cell EC50
In plain terms, low EC50, meaning strictly below 300 nM, gives T, and everything else gives F.

**Query** Answer whether the compound `CC(C)Nc1cc(N2CCc3cc(C#N)cnc32)ncc1C(=O)NC[C@@H](F)C(C)(C)O` has EC50 strictly less than 300 nM
**Result** T

**Query** Answer whether the compound `CC(C)Nc1cc(-n2ccc3cc(C#N)cnc32)ncc1C(=O)NC1CCN(S(C)(=O)=O)CC1` has EC50 strictly less than 300 nM
**Result** T

**Query** Answer whether the compound `CC(C)Nc1cc(-n2ncc3cc(C#N)cnc32)ncc1C(=O)NCc1nn[nH]n1` has EC50 strictly less than 300 nM
**Result** F

**Query** Answer whether the compound `CC(C)(O)[C@H](F)CNC(=O)c1cnc(-n2ncc3cc(C#N)cnc32)cc1Nc1ccc(C#N)cc1` has EC50 strictly less than 300 nM
**Result** T

**Query** Answer whether the compound CC(C)(O)[C@H](F)CNC(=O)c1cnc(-n2ncc3cc(F)cnc32)cc1NC1CCC(F)C1 (single isomer, unassigned) has EC50 strictly less than 300 nM
**Result** T

**Query** Answer whether the compound `CC(C)(O)[C@H](F)CNC(=O)c1cnc(-n2ccc3cc(C#N)cnc32)cc1Nc1cccc(-c2ncc[nH]2)c1` has EC50 strictly less than 300 nM
**Result** T

**Query** Answer whether the compound `CC(C)(O)[C@H]1CC[C@H](NC(=O)c2cnc(-n3ccc4cc(F)cnc43)cc2NC2CC2)CC1` has EC50 strictly less than 300 nM
**Result** F

**Query** Answer whether the compound `CC(C)(O)[C@H](F)CNC(=O)c1cnc(-n2ncc3cc(F)cnc32)cc1NC1CCOCC1` has EC50 strictly less than 300 nM
**Result** T

**Query** Answer whether the compound `CC(C)(O)[C@H]1CC[C@H](NC(=O)c2cnc(-n3ccc4cc(C#N)cnc43)cc2NC2CC2)CC1` has EC50 strictly less than 300 nM
**Result** T

**Query** Answer whether the compound `Cn1nccc1Nc1cc(-n2ncc3cc(C#N)cnc32)ncc1C(=O)NC[C@@H](F)C(C)(C)O` has EC50 strictly less than 300 nM
**Result** F
